system: MV4-11; assay: Cytotoxicity against human MV4-11 cells assessed as cell viability after 48 hrs by MTT assay; assay type: functional, cell-based; conditions: Homo sapiens, MV4-11, 48 h
Recorded IC50 values for a group of molecules are listed next.
The reply should read as a number followed by its unit.

// solved cases for IC50 follow
{"Molecule": "O=C(NC(=O)c1ccc(Cl)c(C(F)(F)F)c1)Nc1ccc2c(c1)NC(=O)/C2=C\\c1ccc[nH]1", "Property Label": "IC50", "Reported": "0.0141 µM"}
{"Molecule": "COc1ccc(C(=O)NC(=O)Nc2ccc3c(c2)NC(=O)/C3=C\\c2ccc[nH]2)cc1", "Property Label": "IC50", "Reported": "0.0293 µM"}
{"Molecule": "COc1ccc(C(=O)NC(=O)Nc2ccc3c(c2)NC(=O)/C3=C\\c2[nH]c(C)c(C(=O)N3CCN(C)CC3)c2C)c(F)c1", "Property Label": "IC50", "Reported": "0.0106 µM"}
{"Molecule": "COc1ccc(C(=O)NC(=O)Nc2ccc3c(c2)NC(=O)/C3=C\\c2[nH]c(C)c(CCC(=O)N3CCOCC3)c2C)c(F)c1", "Property Label": "IC50", "Reported": "0.0179 µM"}
{"Molecule": "COc1ccc(C(=O)NC(=O)Nc2ccc3c(c2)NC(=O)/C3=C\\c2[nH]c(C)c(C(=O)N3CCOCC3)c2C)c(F)c1", "Property Label": "IC50", "Reported": "0.0168 µM"}
{"Molecule": "COc1ccc(C(=O)NC(=O)Nc2ccc3c(c2)NC(=O)/C3=C\\c2[nH]c(C)c(CCC(=O)O)c2C)cc1", "Property Label": "IC50", "Reported": "0.0053 µM"}
{"Molecule": "COc1ccc(C(=O)NC(=O)Nc2ccc3c(c2)NC(=O)/C3=C\\c2[nH]c(C)cc2C)cc1", "Property Label": "IC50", "Reported": "0.0628 µM"}

Lab note: next molecule to report on.
# input Please report IC50 for the following molecule: O=C(NC(=O)c1ccc(Cl)c(Cl)c1)Nc1ccc2c(c1)NC(=O)/C2=C\c1ccc[nH]1
# output 0.0316 µM
